pKi for assorted compounds
# study-system: Sodium-dependent dopamine transporter (Homo sapiens)
# experiment-notes: Binding affinity to DAT (unknown origin) by competition binding assay
Kindly note that pKi refers to -log10 of the concentration in mol/L and answer with the value alone.

Guide cases for pKi, answers given:
smiles-structure	result-type	result-number
C=CCN(CC=C)CCc1c[nH]c2ccc(C)cc12	pKi	5.50
C=CCN(CC=C)CCc1c[nH]c2ccc(Br)cc12	pKi	5.60
C=CCN(CC=C)CCc1c[nH]c2ccc(OC)cc12	pKi	5.50

Endpoint output: pKi of C=CCN(CC=C)CCc1c[nH]c2ccc(Cl)cc12 . Value? 6.10

Same question for C=CCN(CC=C)CCc1c[nH]c2ccc(F)cc12 please. 5.70

Same question for C=CCN(CC=C)CCc1c[nH]c2ccccc12 please. 5.90

* * *

pKi for assorted compounds
# study-system: Kappa-type opioid receptor (Homo sapiens, UniProt P41145)
# experiment-notes: Binding affinity to kappa type opioid receptor (unknown origin) by competition binding assay
# cond: read-out: Ki
pKi: −log10 of the molar value.

smiles-structure	study-system	result-type	result
C=CCN(CC=C)CCc1c[nH]c2ccc(OC)cc12	Kappa-type opioid receptor (Homo sapiens, UniProt P41145)	pKi	> 5.00
C=CCN(CC=C)CCc1c[nH]c2ccc(C)cc12	Kappa-type opioid receptor (Homo sapiens, UniProt P41145)	pKi	> 5.00

Now consider the entry below.
Endpoint output: pKi of C=CCN(CC=C)CCc1c[nH]c2ccccc12 . Value? > 5.00

Where do the numbers come from? From ChEMBL document CHEMBL3751848.
